Parameter: TGI. Scope: all listed entries.
# Test system: A549 NSCLC
# assay-explanation: NCI tumour cell line growth inhibition, 48 h

# compound, TGI
data = [
    ("O=S(=O)(NC1=NCCN1C(=S)SN1CCn2c1nsc2=S)c1ccc(OC(F)(F)F)cc1", "54.3 µM"),
    ("CCN(CCO)CC1CCCC2CCCCC21 (stereo unspecified)", "> 100 µM"),
    ("OCc1ccc(N2CCC2c2ccc(F)cc2)cc1Cl (stereo unspecified)", "64 µM"),
    ("CC(C)C1/C(=N/O)CC(c2ccccc2)N(N=O)C1c1ccccc1 (stereo unspecified)", "> 100 µM"),
    ("Cc1nc2ccccc2c(=O)n1-c1ccccc1I", "> 100 µM"),
    ("CCN(CC)CCC(=O)Nc1ccc2c(c1)C(=O)c1ccc(NC(=O)CCN(CC)CC)cc1C2=O", "20.6 µM"),
    ("CCCCCCCCCCCCCCCCCC(CCCCCCCCCCCCCCCCC)OP(=O)(O)O", "> 100 µM"),
    ("N#CC1=C(N)N(c2ccccc2)C(c2ccco2)C1(C#N)C#N (stereo unspecified)", "> 100 µM"),
    ("Clc1ccc2c(NCCCCNc3nc(N4CCCCC4)nc4ccccc34)ccnc2c1", "10.3 µM"),
    ("COc1ccc(C(=O)Cn2c(C(=O)c3ccccc3)nc(-c3ccc(OC)cc3)c2-c2ccc(OC)cc2)cc1", "> 100 µM"),
    ("Oc1cc2c3c(c1)c1cc4c(cc1c[n+]3CC2)OCO4", "> 88.5 µM"),
]

###

# Test system: MOLT-4 leukemia
# assay-explanation: NCI tumour cell line growth inhibition, 48 h
Parameter: TGI. Scope: all listed entries.

# compound, unit, inequality-operator, TGI
measured = [
    ("CCCN=C1CCN(Cc2ccccc2)c2ccccc2N1", "µM", "=", 34.1),
    ("Cc1nc2ccccc2c(=O)n1-c1ccccc1I", "µM", ">", 100),
    ("O=C(COc1ccc(Br)cc1Br)N1N=C(c2ccc([N+](=O)[O-])o2)CC1(O)c1ccccc1 (stereo unspecified)", "µM", "=", 8.98),
    ("COC(=O)c1cc2c(n1S(=O)(=O)c1ccc(C)cc1)C(=O)C(=O)c1[nH]cc(C(=O)OCc3ccccc3)c1-2", "µM", "=", 0.944),
    ("COc1ccc(C2c3cc4c(cc3OC(NNS(=O)(=O)c3ccc(C)cc3)C2C)OCO4)cc1 (stereo unspecified)", "µM", ">", 100),
    ("O=C(O)CCc1coc2ccc(O)cc12", "µM", ">", 100),
    ("O=CN/C=C/c1cc(O)ccc1O", "µM", ">", 63.4),
    ("Clc1cc2nsnc2c(Cl)n1", "µM", "=", 43.6),
    ("O=C1C2C(C(=O)N1OS(=O)(=O)c1ccccc1)N(Cc1ccccc1)C(=O)N2Cc1ccccc1 (stereo unspecified)", "µM", ">", 100),
    ("COc1ccc(N2C(=O)C3c4[nH]c5ccccc5c4C4CCC(C(C)(C)C)CC4C3C2=O)c(C)c1 (stereo unspecified)", "µM", ">", 100),
    ("CCCCCN(CCCCC)CC(O)c1cc(C)c2ccc3cc(C(C)C)ccc3c2c1 (stereo unspecified)", "µM", "=", 4.72),
]

Source: PubChem BioAssay (NCI)
